- system-tested: T1, MUC1 peptide (15 aa+cystein, APDTRPAPGSTAPPAC) (human)
- T1 construct: If the listing entry has only 15 residues, a C-terminal Cys must be added; Immobilized on the SPR chip; also called synthetic MUC1 peptide
- T1 peptide: APDTRPAPGSTAPPAC
- test-name: SPR, scFv 2-200 nM over immobilized MUC1 peptide, Chip 1 (47 RU)
This section presents binders with their documented kon values.
State just the number; it will be interpreted in M⁻¹ s⁻¹.

{"columns": ["binder", "kon [M⁻¹ s⁻¹]"],
 "data": [
  ["HT186-D11 scFv (scFv, scFv as VH-truncated CH1-linker-VL-truncated CL, made in the E. coli periplasm and purified by its His-tag; not shown: C-terminal His-tag used for purification and detection) scFv: QMQLVQSEAELKKPGASVKVSCKASGYSFTGHYMHWVRQAPGQGLEWMGWIDPVTGGTKYAQNFQGWVTMTRDTSIRTAYLELSRLRSDDTAMYYCAREVTGDRGQFDKWGQGTLVTVASSSTKGPSVKLEEGEFSEARVQSVLTQPPSVSVAPGKTARITCGGNNIGSKSVHWYQQKPGQAPALVIYYGSNRPSGIPERFSGSNSGNTATLTISRVEAGDEADYYCQVWDSSSDWVFGGGTKLTVLGQPKAAPSVTLFPSS", 38000],
  ["HT220-M-D1 scFv (scFv, scFv as VH-truncated CH1-linker-VL-truncated CL, made in the E. coli periplasm and purified by its His-tag; not shown: C-terminal His-tag used for purification and detection) scFv: QMLLVQSGAEAKKPGASVKVSCKASGYTFTGHYMHWVRQAPGQGLEWMGWIDPVTGGTKYAQNFQGWVTMTRDTSIRTAYMELSRLRPDDTAMYYCAREVTGDRGQFDKWGQGTLVTVASASTKGPSVKLEEGEFSEARVQSVLTQPPSVSVVPGKTARIICGGNNIGSKSVHWYQQKPGQAPVLVIYNNSDRPSGIPERFSGSNSGNMATLTISRVEAGDESDYYCQVWDSSSDWVFGGGTRLTILGQSKAAPSVTLFPPS", 29000],
  ["HT200-3A-C1 scFv (scFv, scFv as VH-truncated CH1-linker-VL-truncated CL, made in the E. coli periplasm and purified by its His-tag; not shown: C-terminal His-tag used for purification and detection) scFv: QMQLVQSGAEVKKPGASVKVSCKASGYTFTGHYMHWVRQAPGQGLEWMGWIDPVTGGTKYAQNFQGWVTMTRDTSIRTAYMELSRLRSDDTAMYYCAREVTGDRGQFDKWGQGTLVTVASASTKGPSAKLEEGEFSEARVQSVLTQPPSVSMAPGETARITCGGNNIGSKSVHWYQQKPGQAPVLVIYNDSDRPSGIPERFSGSNSGKTATLTISRVEAGDEADYYCQVWDSSIDWVFGGGTKLTVLGQPKAAPSVTLFPPS", 49000]
]}

Incoming: What measured kon goes with HT186-G2 scFv (scFv, scFv as VH-truncated CH1-linker-VL-truncated CL, made in the E. coli periplasm and purified by its His-tag; not shown: C-terminal His-tag used for purification and detection) scFv: RMQLVQSGAEVKKPGASVKLSCKASGYTFAGHYMHWVRQAPGRGLEWMGWIDPVTGGTKYAQNFQGWVTMTRDTSIRTAYMELSRLRSDDTAMYYCAREVTGDRGQFDKWGQGTLVTVASASTKGPSVKLEEGKFLEAHVQSVLTQPPSVSVAPGKTARITCGGNNIGSKSVHWYQQKPGQAPVLVIYYGSDRSSGIPERFSGSNSGNTATLTISRVEAGDEADYYCQVWDSSSDWVFGGGTKLTVLGQPKAAPSVTLFPPS ?
Outgoing: 72000
